assay: Selectivity ratio of Ki for guinea pig kappa opioid receptor to Ki for mouse delta opioid receptor
Please mark class 1 if the recorded Ratio Ki is equal to or greater than 100, and class 0 if it falls below.

O=C1[C@H]2O[C@@]34CC[C@@]5(OCOc6c(O)ccc7c6[C@@]3(CCN(CC3CC3)[C@@H]4C7)[C@H]25)N1c1ccccc1
class 0
COc1ccc2c(c1O)[C@]13CCN(CC4CC4)[C@H](C2)[C@]12CC[C@]1(O)[C@H]3[C@H](O2)C(=O)N1Cc1ccccc1
class 0
O=C1[C@H]2O[C@@]34CC[C@@]5(OCOc6c(O)ccc7c6[C@@]3(CCN(CCc3ccccc3)[C@@H]4C7)[C@H]25)N1Cc1ccccc1
class 1

For the next question, use this molecule.
Q) Quick check, Ratio Ki >= 100? `O=C1[C@H]2O[C@@]34CC[C@@]5(OCOc6c(O)ccc7c6[C@@]3(CCN(CC3CC3)[C@@H]4C7)[C@H]25)N1Cc1ccccc1`
A) class 0

====

Listed here are compounds together with their documented EC50.
target: Kappa-type opioid receptor (Homo sapiens, UniProt P41145); experiment: Agonist activity at human kappa opioid receptor expressed in HEK293 cells by CellKey method; assay type: cell-based
Sequence (P41145 whole entry): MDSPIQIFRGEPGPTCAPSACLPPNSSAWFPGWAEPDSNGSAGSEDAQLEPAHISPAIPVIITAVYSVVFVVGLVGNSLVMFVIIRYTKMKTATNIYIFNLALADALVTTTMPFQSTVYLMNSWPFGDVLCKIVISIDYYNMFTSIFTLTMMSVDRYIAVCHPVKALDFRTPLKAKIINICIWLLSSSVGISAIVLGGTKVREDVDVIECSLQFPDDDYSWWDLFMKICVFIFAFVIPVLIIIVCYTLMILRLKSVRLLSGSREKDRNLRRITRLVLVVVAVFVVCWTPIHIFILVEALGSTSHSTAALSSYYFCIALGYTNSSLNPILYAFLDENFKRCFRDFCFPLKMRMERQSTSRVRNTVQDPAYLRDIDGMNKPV
# output: bare number, implied unit nM

O=C1[C@H]2O[C@@]34CC[C@@]5(OCOc6c(O)ccc7c6[C@@]3(CCN(CC3CC3)[C@@H]4C7)[C@H]25)N1c1ccccc1
1.2
CN1CC[C@@]23c4c5ccc(O)c4OCO[C@]46CC[C@@]2(O[C@H](C(=O)N4Cc2ccccc2)[C@H]63)[C@H]1C5
307

Query compound follows.
Q) # return recorded EC50 for entry `O=C1[C@H]2O[C@@]34CC[C@@]5(OCOc6c(O)ccc7c6[C@@]3(CCN(CC3CC3)[C@@H]4C7)[C@H]25)N1CCc1ccccc1`
A) 2.4

====

experiment: Selectivity ratio of Ki for guinea pig kappa opioid receptor to Ki for mouse delta opioid receptor
assay metric: Ratio Ki
Respond with the number and no other words.

O=C1[C@H]2O[C@@]34CC[C@@]5(OCOc6c(O)ccc7c6[C@@]3(CCN(CC3CC3)[C@@H]4C7)[C@H]25)N1CCc1ccccc1
1.7
CC(C)CN1CC[C@@]23c4c5ccc(O)c4OCO[C@]46CC[C@@]2(O[C@H](C(=O)N4Cc2ccccc2)[C@H]63)[C@H]1C5
17

Q) # return recorded Ratio Ki for entry `C=CCN1CC[C@@]23c4c5ccc(O)c4OCO[C@]46CC[C@@]2(O[C@H](C(=O)N4Cc2ccccc2)[C@H]63)[C@H]1C5`
A) 46.2

====

Listed here are molecules together with their documented Emax.
target: Delta-type opioid receptor (Homo sapiens, UniProt P41143); assay: Agonist activity at human delta opioid receptor expressed in CHO cells assessed as [35S]-GTP[gammaS] binding relative to SNC80; type: functional, cell-based
Sequence (P41143 whole entry): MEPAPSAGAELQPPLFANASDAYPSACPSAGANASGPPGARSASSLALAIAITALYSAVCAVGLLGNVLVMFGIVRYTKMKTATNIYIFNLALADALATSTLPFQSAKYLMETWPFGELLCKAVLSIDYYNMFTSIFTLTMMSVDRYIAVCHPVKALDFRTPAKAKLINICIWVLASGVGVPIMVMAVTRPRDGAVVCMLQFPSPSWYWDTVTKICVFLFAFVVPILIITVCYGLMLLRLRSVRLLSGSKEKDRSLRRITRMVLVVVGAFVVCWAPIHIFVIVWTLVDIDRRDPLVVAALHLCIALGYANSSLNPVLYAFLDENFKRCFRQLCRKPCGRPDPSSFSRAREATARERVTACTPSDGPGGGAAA
# output: bare number, implied unit %

O=C1[C@H]2O[C@@]34CC[C@@]5(OCOc6c(O)ccc7c6[C@@]3(CCN(CCc3ccccc3)[C@@H]4C7)[C@H]25)N1Cc1ccccc1
115

Q) # return recorded Emax for entry `C=CCN1CC[C@@]23c4c5ccc(O)c4OCO[C@]46CC[C@@]2(O[C@H](C(=O)N4Cc2ccccc2)[C@H]63)[C@H]1C5`
A) 94.6

Q) # return recorded Emax for entry `CN1CC[C@@]23c4c5ccc(O)c4OCO[C@]46CC[C@@]2(O[C@H](C(=O)N4Cc2ccccc2)[C@H]63)[C@H]1C5`
A) 112

Q) # return recorded Emax for entry `CC(C)CN1CC[C@@]23c4c5ccc(O)c4OCO[C@]46CC[C@@]2(O[C@H](C(=O)N4Cc2ccccc2)[C@H]63)[C@H]1C5`
A) 96.4

Q) # return recorded Emax for entry `O=C1[C@H]2O[C@@]34CC[C@@]5(OCOc6c(O)ccc7c6[C@@]3(CCN(CC3CC3)[C@@H]4C7)[C@H]25)N1c1ccccc1`
A) 118

Q) # return recorded Emax for entry `O=C1[C@H]2O[C@@]34CC[C@@]5(OCOc6c(O)ccc7c6[C@@]3(CCN(CC3CC3)[C@@H]4C7)[C@H]25)N1Cc1ccccc1`
A) 92.8

Q) # return recorded Emax for entry `O=C1[C@H]2O[C@@]34CC[C@@]5(OCOc6c(O)ccc7c6[C@@]3(CCN(CC3CC3)[C@@H]4C7)[C@H]25)N1CCc1ccccc1`
A) 103
